// provenance: PubChem BioAssay (NCI)

# Test system: NCI-H226 lung
# Experiment notes: NCI tumour cell line growth inhibition, 48 h
Below: a set of entries, each annotated with reported TGI.
Metric name: TGI

molecule=COc1ccc(OC)c2cc(Cc3ccc(N(C)C)cc3)c(=O)c(Cc3ccc(N(C)C)cc3)cc12 metric_name=TGI endpoint_result="> 100 µM"
molecule=O=C(NCCNCCO)N/N=C/c1ccc(Cl)cc1 metric_name=TGI endpoint_result="> 100 µM"
molecule=COc1cc(-c2cnn(C)c2)ccc1Nc1ncc2ccnc(N[C@@H](C)C(C)(C)C)c2n1 metric_name=TGI endpoint_result="> 100 µM"
molecule="CC1=CSC2=NC(c3ccc(Cl)c(Cl)c3)=CC(c3ccc(Cl)cc3)N12 (stereo not drawn)" metric_name=TGI endpoint_result="> 100 µM"
molecule=NC(=O)COc1ccccc1 metric_name=TGI endpoint_result="> 100 µM"
molecule=CC1(C)C(=O)N(c2ccccc2)C(=O)N1c1nc2ccccc2[nH]1 metric_name=TGI endpoint_result="> 100 µM"
molecule=Oc1ccc(N=Nc2ccc(Cl)cc2)cc1 metric_name=TGI endpoint_result="35.6 µM"
molecule=CC(=O)N/C(=C\c1ccc(/C=C(\NC(C)=O)c2nc3ccc(Cl)cc3[nH]2)cc1)c1nc2ccccc2[nH]1 metric_name=TGI endpoint_result="> 100 µM"
molecule=O=C(N=Nc1ccccc1Br)NNc1ccccc1Br metric_name=TGI endpoint_result="> 100 µM"
molecule="O=C1c2ccccc2CC12Cc1ccc3c(c1C2)CCC3 (stereo not drawn)" metric_name=TGI endpoint_result="64.7 µM"
molecule=CCN(CC)c1ccc(N=Nc2ccc(-c3nc4cccnc4o3)cc2)cc1 metric_name=TGI endpoint_result="> 100 µM"
molecule=CCN(CC)CCCNc1ccc2nnn3c4ccc(O)cc4c(=O)c1c23 metric_name=TGI endpoint_result="22.4 µM"
molecule="CSc1ncc2c(n1)-c1ccccc1OC2N1CCCC1 (stereo not drawn)" metric_name=TGI endpoint_result="> 100 µM"
molecule="O=c1ccn(C2OC(CO)C(O)C2O)c(=O)[nH]1 (stereo not drawn)" metric_name=TGI endpoint_result="> 1000 µM"
molecule=CCCCN(c1ccccc1)c1ncnc2c1cnn2C metric_name=TGI endpoint_result="> 100 µM"
molecule=CCCCSc1n/c(=C\c2ccc(N(C)C)cc2)c2nnnn12 metric_name=TGI endpoint_result="> 100 µM"
molecule=CC[N+](CCCCCCCCCC[N+](CC)(c1ccccn1)c1ccccn1)(c1ccccn1)c1ccccn1 metric_name=TGI endpoint_result="22.3 µM"
molecule="CCCCCCC/C=C/[C@H]1O[C@]23C(=O)C[C@@]4(C[C@@H](OC5OC(CO)C(O)C(O)C5O)C[C@@H]4[C@H]2C=C1C)OC3=O (stereo partly drawn)" metric_name=TGI endpoint_result="13.4 µM"
